Collected INHIBITION values appear next to each entry.
System: Plasmodium berghei
Assay: Screen against P. berghei liver stage (PbLuc), transformed with Luciferase, at 10uM
Assay type: functional, HepG2
Settings: tested at 10 uM
Out of some 69,000 compounds screened, about 8,600 (12%) showed an effect of 50% or more. The full list was thinned out, with strong results kept by preference.
// units = %; emit number, no label

Some compounds with known INHIBITION results, for comparison:
# compound, tested.on, unit.tag, INHIBITION
measured = [
    ("CC(=O)N1CCCC(Cc2cnc(C(=O)N3CCC(C)CC3)cn2)C1 (stereo not given)", "Plasmodium berghei", "%", 6.32),
    ("CCc1cccc(N2CCC(NC(=O)c3ccco3)CC2)c1", "Plasmodium berghei", "%", 91.4),
    ("O=C(NCCn1cccn1)Nc1cc(C(=O)N2CCOCC2)ccc1Cl", "Plasmodium berghei", "%", 45.2),
    ("Cc1cccc(COC[C@H]2CC[C@H]3[C@H](CCN3C(=O)CC3CC3)O2)n1", "Plasmodium berghei", "%", 2.84),
]

So, CCc1ccc(O)c(C(=O)NC2CCN(S(=O)(=O)CC)CC2)c1 ? Its INHIBITION was 44.2
